B1: glmS ribozyme (parent)
chain: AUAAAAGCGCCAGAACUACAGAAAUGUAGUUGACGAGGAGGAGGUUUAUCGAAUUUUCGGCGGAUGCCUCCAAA

Variants of: B1
Experiment: self-cleavage kobs at 640 uM GlcN6P; higher = faster cleavage; RNA array
Conditions: with glucosamine-6-phosphate
Variants at the floor of the assay were thinned out.
propertyLabel: self-cleavage kobs at 640 uM GlcN6P (s⁻¹)
Your answer should be a plain number; it is taken to be in s⁻¹.

variantLabel: A52G C71U
self-cleavage kobs at 640 uM GlcN6P [s⁻¹]: 0.000293
--
variantLabel: A48U U54G
self-cleavage kobs at 640 uM GlcN6P [s⁻¹]: 8.39e-05
--
variantLabel: G43A C67G
self-cleavage kobs at 640 uM GlcN6P [s⁻¹]: 0.000321
--
variantLabel: U54A U57C
self-cleavage kobs at 640 uM GlcN6P [s⁻¹]: 3.98e-05

Report self-cleavage kobs at 640 uM GlcN6P for A53U U56G please.
0.00241

Report self-cleavage kobs at 640 uM GlcN6P for C16U C50U U69G please.
7.53e-05

Report self-cleavage kobs at 640 uM GlcN6P for A12C U57C please.
4.73e-05

Report self-cleavage kobs at 640 uM GlcN6P for C8G G32U U47G C67G C68G please.
0.000105

Report self-cleavage kobs at 640 uM GlcN6P for C16U A48U please.
7.24e-05
